Assay: viability loss with induced miR-34 in A549 – imaging, A549 dox-inducible miR-34, nuclei and caspase counts, primary screen (AID 1347080)
Conditions: A549 miR-34 inducible, Hoechst nuclei count, 48 h; measured here: relative caspase fold change +Dox/-Dox
Please mark Y if the recorded fold change is equal to or greater than 0.9, and N if it falls below.

## Input Textbook exercise: given the entry COc1ccc2cc(C(C#N)OC(=O)CC3OC3c3ccccc3)ccc2c1 (stereo unspecified) , state whether its fold change is greater than or equal to 0.9.
## Output N

###

Assay: viability loss with induced miR-34 in A549 – imaging, A549 dox-inducible miR-34, nuclei and caspase counts, primary screen (AID 1347080)
Details: A549 miR-34 inducible, Hoechst nuclei count, 48 h; stronger effect = lower value; cell number ratio, induced over uninduced
observation.type: fold change
Answer with a bare number; do not write a unit.

Here's what some known entries look like.
[[record]]
compound = "N#Cc1ccccc1OCC(O)CNCCNC(=O)Nc1ccccc1 (centres undefined)"
numeric_readout = 0.847

[[record]]
compound = "O=C(CCC/C=C\\C[C@H]1C(=O)C[C@@H](O)[C@@H]1/C=C/[C@@H](O)CCc1ccccc1)NC(CO)CO"
numeric_readout = 0.931

[[record]]
compound = "O=C(O)CCC/C=C\\C[C@H]1[C@@H](/C=C/[C@@H](O)CCc2ccccc2)[C@H](O)C[C@@H]1O"
numeric_readout = 0.9

[[record]]
compound = "O=C(Nc1ccc(OC(F)(F)F)cc1)c1sccc1NCc1ccnc2ccccc12"
numeric_readout = 0.889

[[record]]
compound = "O=C(CCCCCCNC(=O)c1cnc(N(c2ccccc2)c2ccccc2)nc1)NO"
numeric_readout = 0.909


## Input What does the record list as fold change for O=C(O)CCC/C=C\C[C@@H]1[C@@H](/C=C/C(=O)CCc2ccccc2)[C@H](O)C[C@@H]1O ?
## Output 0.902

## Input What does the record list as fold change for O=C(O)C1(Cc2cccc(Nc3nccs3)n2)CCC(Oc2cccc(Cl)c2F)CC1 (centres undefined) ?
## Output 1.01

## Input What does the record list as fold change for CC(C)ON(CC(=O)NO)S(=O)(=O)c1ccc(-c2ccccc2)cc1 ?
## Output 0.989

###

Assay: growth inhibition, single agents and combos, UWB1.289, cell-based, BGB or cisplatin combos, synergistic combos for chromothripsis tumors (AID 1671456);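 also: cells exposed to compound for four days; 0% = vehicle DMSO and 100% = killing by high DMSO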
Details: UWB1.289 ovarian carcinoma cells, measured here: inhibition with BGB combination, at 0.05 µM, stronger effect = higher value
observation.type: inhibition (%)
Express the result in % but write the number alone.

Here's what some known entries look like.
[[record]]
compound = "O=C(COc1cccc2c(=O)[nH]ccc12)c1ccccc1"
observation_type = "inhibition"
numeric_readout = -22.4

[[record]]
compound = "O=C(O)[C@H](Cc1c[nH]c2ccccc12)N1C(=O)c2ccccc2C1=O"
observation_type = "inhibition"
numeric_readout = -20.2

[[record]]
compound = "CN(C)c1ccc(C(=O)NCCCCCCC(=O)NO)cc1"
observation_type = "inhibition"
numeric_readout = -11.2

[[record]]
compound = "CN(C)CCN1C(=O)c2cccc3cc(N)cc(c23)C1=O"
observation_type = "inhibition"
numeric_readout = -1.98

[[record]]
compound = "O=C(/C=C/c1cccc(S(=O)(=O)Nc2ccccc2)c1)NO"
observation_type = "inhibition"
numeric_readout = -3.28


## Input What does the record list as inhibition for COc1cc(C=O)c([N+](=O)[O-])cc1OC ?
## Output 3.53

## Input What does the record list as inhibition for O=C(CCCCCCNC(=O)c1cnc(N(c2ccccc2)c2ccccc2Cl)nc1)NO ?
## Output -28.3

## Input What does the record list as inhibition for CC(=O)Nc1nc(C)c(-c2ccc(Cl)c(S(=O)(=O)NCCO)c2)s1 ?
## Output 10.4

## Input What does the record list as inhibition for CN(C)C/C=C/C(=O)Nc1ccc(C(=O)Nc2cccc(Nc3ncc(Cl)c(-c4c[nH]c5ccccc45)n3)c2)cc1 ?
## Output 9.81

## Input What does the record list as inhibition for CC(=O)Nc1ccc(C(=O)Nc2ccccc2N)cc1 ?
## Output -12.2
